target: trypsin; experiment: monoclonal phage ELISA
Below, each entry is listed with its recorded ELISA signal.
Lab note: jot the number down without any unit.

Per the record, E08 (KnotBody with EET 5-3 framing) (scFv, V domains shown) VH: EVQLVESGGGLVRPGGSLRLSCAASGFTFSSYAMSWVRQAPGKGLEWVSAISGSGGSTYYADSVKGRFTISRDNTKNSLYLQMTSLRADDTAFYYCVKDFGPGYGTGWFDYWGPGTLVTVSS VL: AVNWYQQLPGKAPKLLIYAAGGCGPNGFCGSGSDGGVCPRILMRCKQDSDCLAGCGIQSGIPERFSGSKSGTSASLAISGLRSEDEADYYCAAWDDNLSGYVFGTGTKLTVLG has ELISA signal of 121000

Per the record, G11 (KnotBody with EET 5-3 framing) (scFv, V domains shown) VH: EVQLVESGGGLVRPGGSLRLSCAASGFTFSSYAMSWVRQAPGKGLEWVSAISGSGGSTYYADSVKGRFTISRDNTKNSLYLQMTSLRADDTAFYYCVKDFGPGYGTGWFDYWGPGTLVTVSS VL: AVNWYQQLPGKAPKLLIYAAGGCGPNGFCGSGSDGGVCPRILMRCKQDSDCLAGCGQSSGVSDRFSGSKSGTSATLDITGLQTGDEADYYCGTWDNSLSVGVFGGGTKVTVLG has ELISA signal of 27600

Per the record, F01 (KnotBody with EET 5-3 framing) (scFv, V domains shown) VH: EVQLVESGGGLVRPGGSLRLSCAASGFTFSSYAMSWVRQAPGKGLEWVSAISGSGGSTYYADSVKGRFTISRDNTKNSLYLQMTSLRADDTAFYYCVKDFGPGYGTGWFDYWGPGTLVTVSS VL: YLNWYQQKPGKAPKLLIDAAGECGPNGFCGSGSDGGVCPRINMRCKQDSDCLAGCGRDSGVPSRFSGSGSGTDFTLTISSLQPEDFATYYCQQSYSTPWTFGQGTKVEIKR has ELISA signal of 102000
